assay: qHTS for Inhibitors of human tyrosyl-DNA phosphodiesterase 1 (TDP1): qHTS in cells in presence of CPT; details: chicken DT40 Tdp1-/-;hTDP1 cells + 20 nM CPT, ATP luminescence, 48 h; series mostly up to 46.2 µM; also: nearly all actives have a fitted effect of over 55% in size; also: potency is read from the fitted curve at half-maximal effect
Hit rate of the full screen: of about 420,000 compounds, about 50,000 (12%) were called active. Roughly 26% stayed inconclusive and do not appear here. The sample holds actives, similar compounds and a random draw of the others, so the mix is not that of the screen.
propertyLabel: Potency

Check out these entries, answers already filled in.
INSERT INTO assay_data (compound, propertylabel, observedresult) VALUES
  ('CCN1C(=O)c2ccccc2Sc2ccc(NC(=O)Cc3ccc(OC)cc3)cc21', 'Potency', 'inactive'),
  ('O=C(NCCc1cccc(F)c1)C1CCCN(c2nc3ccccc3s2)C1 (stereo unspecified)', 'Potency', '18.4 µM (active)'),
  ('O=C(NCc1ccccc1)C1CCCN(c2nc3ccsc3c(=O)s2)C1 (stereo unspecified)', 'Potency', 'inactive'),
  ('CCOc1ccccc1C(=O)Nc1ccc2c(c1)N(C)C(=O)c1ccccc1S2', 'Potency', '4.61 µM (active)'),
  ('CCOc1ccccc1C(=O)NCCCn1ccnc1', 'Potency', 'inactive');

Shift focus to the following entry.
Asked: Quickly give me recorded Potency for CCc1ccc(C(=O)OCC(=O)NCC(F)(F)F)cc1
Given back: inactive

----------
assay: qHTS for Inhibitors of human tyrosyl-DNA phosphodiesterase 1 (TDP1): qHTS in cells in presence of CPT; settings: chicken DT40 Tdp1-/-;hTDP1 cells + 20 nM CPT, ATP luminescence, 48 h; series mostly up to 46.2 µM; also: nearly all actives have a fitted effect of over 55% in size
The campaign covered roughly 420,000 compounds. About 50,000 (12%) were called active. Inconclusive results (about 26%) are left out. Calls follow the shape of the dose curve; as a rule, active = well fitted inhibition curve with a large enough effect; inconclusive = small, poorly fitted or top-dose-only effect; inactive = flat fitted curve, though single readings scatter. The sample as a whole holds a higher share of actives than the screen did.
Permitted responses: 1 = active, 0 = inactive

INSERT INTO assay_data (compound, classassignment) VALUES
  ('Cc1ccc2c(c1)N(C(=O)CCC(=O)NCc1ccccc1F)CC(C)O2 (stereo not drawn)', 0),
  ('COc1ccccc1C(=O)Nc1c(C(=O)Nc2ccc(C)cc2)oc2ccccc12', 1),
  ('CC(=O)N1CCN(CC(=O)Nc2ccc(C)c(F)c2)CC1', 0),
  ('COc1ccc(CCC(=O)N2CCN(S(=O)(=O)c3ccc(OC)cc3)CC2)cc1', 0),
  ('COc1ccccc1NC(=S)NC(=O)C(C)C', 0),
  ('COc1ccc(S(=O)(=O)N2CCN(c3cnccn3)CC2)cc1', 0);

Pending compound:
Asked: Any idea what this test logged for Cc1ccc(NC2=C(c3ccc(C(F)(F)F)cc3)C(=O)c3ccccc32)cc1F ?
Given back: 1

----------
experiment: qHTS for Inhibitors of human tyrosyl-DNA phosphodiesterase 1 (TDP1): qHTS in cells in presence of CPT; details: chicken DT40 Tdp1-/-;hTDP1 cells + 20 nM CPT, ATP luminescence, 48 h; series mostly up to 46.2 µM; also: nearly all actives have a fitted effect of over 55% in size
Out of some 420,000 compounds screened, about 50,000 (12%) were called active. Roughly 26% stayed inconclusive and do not appear here. Calls come from the whole dose curve; as a rule, active = well fitted inhibition curve with a large enough effect; inconclusive = small, poorly fitted or top-dose-only effect; inactive = flat fitted curve, though single readings scatter. This excerpt belongs to a sample that is enriched for actives.
Please state which outcome applies, choosing from label 1 for active, label 0 for inactive

Examples from the recorded data:
INSERT INTO assay_data (compound, classassignment) VALUES
  ('COc1ccc(CNC(=O)C2CCN(S(=O)(=O)c3ccc(SC)cc3)CC2)cc1', 'label 0'),
  ('COc1ccc(/C=N/n2nnnc2N)cc1OC', 'label 0'),
  ('O=[N+]([O-])c1ccccc1/C=C/CN1CCCC(CO)C1 (centres undefined)', 'label 0'),
  ('CCCCN1C(=O)C(CC(=O)NCc2cccs2)CC(C(=O)N2CCOCC2)=C1C (centres undefined)', 'label 0'),
  ('CC(=O)N1CCc2ccc(N)cc21', 'label 0');

Asked: State the result this test recorded for CCc1ccc(CNC(=O)c2cc3cc4ccc(OC)cc4nc3o2)cc1 .
Given back: label 0

Asked: Recorded call for CCOc1ccc(NC(=O)c2cc(S(=O)(=O)N3CCCC3)c[nH]2)cc1 ?
Given back: label 0

Asked: Please state the recorded outcome for this compound: Cc1nccn1-c1ccc(NC(=O)[C@H]2O[C@@H](n3ccc(=O)[nH]c3=O)[C@H](O)[C@@H]2O)cc1
Given back: label 0

Asked: Answer briefly: the call reported for CCS(=O)(=O)N1CCC(n2c(C)nc3cccnc32)CC1 in this assay.
Given back: label 0

Asked: Recorded test outcome, item CC(C)CN(C(=O)Cn1c(=O)cnc2ccccc21)C1CCS(=O)(=O)C1 (centres undefined)
Given back: label 0

Asked: Recorded test outcome, item COc1cccc(/C=C/C(=O)OCC(=O)N2CCCc3ccccc32)c1
Given back: label 0

Asked: How was CC1(C)CC(N2CCN(C(c3ccccc3)c3ccccc3)CC2)=CC(=[N+]2CCCCC2)C1 classified in this test?
Given back: label 1

----------
test: qHTS for Inhibitors of human tyrosyl-DNA phosphodiesterase 1 (TDP1): qHTS in cells in presence of CPT; conditions: chicken DT40 Tdp1-/-;hTDP1 cells + 20 nM CPT, ATP luminescence, 48 h; series mostly up to 46.2 µM; also: nearly all actives have a fitted effect of over 55% in size
The whole screen tested about 420,000 compounds, of which about 50,000 (12%) were called active. About 26% were inconclusive and are not listed. Calls come from the whole dose curve; as a rule, active = well fitted inhibition curve with a large enough effect; inconclusive = small, poorly fitted or top-dose-only effect; inactive = flat fitted curve, though single readings scatter. Shown is part of a subset that was picked to be rich in actives.
Valid outcomes are listed here; reply with one: y = active, n = inactive

Asked: // param item: COc1cccc(NC(=O)CCNS(=O)(=O)c2ccc3c(c2)oc(=O)n3C)c1 ; yields the recorded call
Given back: n

Asked: Call for entry O=C(CN1C(=O)NC2(CCCC2)C1=O)Nc1ccc(F)c(F)c1F :
Given back: n

----------
experiment: qHTS for Inhibitors of human tyrosyl-DNA phosphodiesterase 1 (TDP1): qHTS in cells in presence of CPT; conditions: chicken DT40 Tdp1-/-;hTDP1 cells + 20 nM CPT, ATP luminescence, 48 h; series mostly up to 46.2 µM; also: nearly all actives have a fitted effect of over 55% in size
Out of some 420,000 compounds screened, about 50,000 (12%) were called active. Inconclusive results (about 26%) are left out. Calls follow the shape of the dose curve; as a rule, active = well fitted inhibition curve with a large enough effect; inconclusive = small, poorly fitted or top-dose-only effect; inactive = flat fitted curve, though single readings scatter. The sample holds actives, similar compounds and a random draw of the others, so the mix is not that of the screen.
Bench note: report the call from y for active, n for inactive

INSERT INTO measurements (compound, classassignment) VALUES
  ('O=C(CCn1nnc2ccccc21)OCC(=O)c1ccc([N+](=O)[O-])cc1', 'n'),
  ('CC(C)=CCN1CCN(CCCc2ccccc2)CC1CCO (stereo not given)', 'n'),
  ('CC(C)=CCN1CCC2(CCc3ccccc32)CC1', 'y'),
  ('CCOC(CNC(=O)C1CCN(S(=O)(=O)c2ccc3nc4c(c(C(=O)O)c3c2)CC(C)CC4)CC1)OCC (stereo not given)', 'n');

Asked: Status in this test for COc1cc(C2/C(=C(\O)c3ccc4c(c3)CC(C)O4)C(=O)C(=O)N2c2nnc(C)s2)cc(OC)c1OC (stereo not given) ?
Given back: n

Asked: Which outcome was entered for the compound Cc1ccc(N(CC(=O)NCC2CCCO2)C(=O)CNS(=O)(=O)c2ccc(Cl)cc2)cc1 (stereo not given) in this test?
Given back: n

Asked: Per the assay record, what outcome was assigned to O=C(COc1ccc(Cl)cc1)Nc1ccc(-c2nc3cc(Cl)ccc3o2)c(O)c1 ?
Given back: n

Asked: Any idea what this test logged for O=C(CC(n1cncn1)C(Cl)(Cl)Cl)c1ccc([N+](=O)[O-])cc1 (stereo not given) ?
Given back: y

Asked: Check the results log: what was the call for COc1cccc(NC(=O)N2CCC(NC(=O)C(Cc3cccc(C)c3)NC(C)=O)CC2)c1 (stereo not given) ?
Given back: n

Asked: Per the assay record, what outcome was assigned to COn1c(-c2ccc(Cl)cc2Cl)nc2ncccc21 ?
Given back: n

----------
assay: qHTS for Inhibitors of human tyrosyl-DNA phosphodiesterase 1 (TDP1): qHTS in cells in presence of CPT; details: chicken DT40 Tdp1-/-;hTDP1 cells + 20 nM CPT, ATP luminescence, 48 h; series mostly up to 46.2 µM; also: nearly all actives have a fitted effect of over 55% in size
About 50,000 (12%) of roughly 420,000 compounds were called active. Another 26% or so got no clear call; they are omitted. Calls come from the whole dose curve; as a rule, active = well fitted inhibition curve with a large enough effect; inconclusive = small, poorly fitted or top-dose-only effect; inactive = flat fitted curve, though single readings scatter. Shown is part of a subset that was picked to be rich in actives.
Response enum: T = active, F = inactive

Before answering, review these 5 worked examples.
INSERT INTO measurements (compound, classassignment) VALUES
  ('CCCN1CCN(CCCNC(=O)Cn2nc(CC)n3c(cc4occc43)c2=O)CC1', 'F'),
  ('CCc1ccc(-c2cc3c(=O)n(CC(=O)NCCCN4CCN(Cc5ccccc5)CC4)nc(C)n3n2)cc1', 'T'),
  ('Cc1c(CN2CCC(n3nccc3NC(=O)CCc3ccccc3)CC2)cnn1C', 'F'),
  ('Cc1ccc(NC(=O)c2cc([N+](=O)[O-])ccc2Cl)c(O)c1', 'F'),
  ('CCn1c(SCC(=O)Nc2ccc3c(c2)OCCO3)nnc1-c1ccncc1', 'F');

Now for another entry.
Asked: // return assay outcome for CCc1ccccc1N1C(=O)CN(S(=O)(=O)CC)CC1(C)C(=O)NC1CCCCC1 (configuration not stated)
Given back: F
